Values compiled from patent US20250136650A1.

Molecular target: STR4 (XBP1-derived unstapled bZIP dimer, Met-to-Leu) (synthetic (human XBP1)) (UniProt P17861+P17861)
Sequence 1: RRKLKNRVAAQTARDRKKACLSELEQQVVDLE
Sequence 2: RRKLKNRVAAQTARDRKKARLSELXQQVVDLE
Test: EMSA
Details: 20 mM HEPES pH 8.0, 150 mM NaCl, 2 mM MgCl2, RT 1 h
pKd: −log10 of the molar value.

residue-codes: TGACGTGG (double strand) [UPRE consensus probe]
pKd: 7.31

---

Biological target: UPRE consensus sequence
Assay: Competitive EMSA with unlabeled UPRE consensus oligo
Type: binding
Details: unit inferred; read-out: Ki, consensus sequence (FIG. 3 legend)
Description: The DNA binding dimer STR22 (shown in FIG. 21 and FIG. 27) was synthesized. STR22 was subjected to EMSA to measure binding to either the UPR element (UPRE) or AP-1 binding site (AP-1). […]
assay-endpoint: Ki

substance: XBP1-derived stapled dimer: RRK^KNR^AAQTARDRKKA#LSELEQQVVDLE linked to RRK^KNR^AAQTARDRKKARLSEL#QQVVDLE; FIG. 27 [STR22]
reported-value: 28.6 nM
